- Target desc: wild type (WT) MET kinase (Homo sapiens, UniProt P08581)
- Construct: purchased Carna 08-151
- Sequence (P08581 25-1390): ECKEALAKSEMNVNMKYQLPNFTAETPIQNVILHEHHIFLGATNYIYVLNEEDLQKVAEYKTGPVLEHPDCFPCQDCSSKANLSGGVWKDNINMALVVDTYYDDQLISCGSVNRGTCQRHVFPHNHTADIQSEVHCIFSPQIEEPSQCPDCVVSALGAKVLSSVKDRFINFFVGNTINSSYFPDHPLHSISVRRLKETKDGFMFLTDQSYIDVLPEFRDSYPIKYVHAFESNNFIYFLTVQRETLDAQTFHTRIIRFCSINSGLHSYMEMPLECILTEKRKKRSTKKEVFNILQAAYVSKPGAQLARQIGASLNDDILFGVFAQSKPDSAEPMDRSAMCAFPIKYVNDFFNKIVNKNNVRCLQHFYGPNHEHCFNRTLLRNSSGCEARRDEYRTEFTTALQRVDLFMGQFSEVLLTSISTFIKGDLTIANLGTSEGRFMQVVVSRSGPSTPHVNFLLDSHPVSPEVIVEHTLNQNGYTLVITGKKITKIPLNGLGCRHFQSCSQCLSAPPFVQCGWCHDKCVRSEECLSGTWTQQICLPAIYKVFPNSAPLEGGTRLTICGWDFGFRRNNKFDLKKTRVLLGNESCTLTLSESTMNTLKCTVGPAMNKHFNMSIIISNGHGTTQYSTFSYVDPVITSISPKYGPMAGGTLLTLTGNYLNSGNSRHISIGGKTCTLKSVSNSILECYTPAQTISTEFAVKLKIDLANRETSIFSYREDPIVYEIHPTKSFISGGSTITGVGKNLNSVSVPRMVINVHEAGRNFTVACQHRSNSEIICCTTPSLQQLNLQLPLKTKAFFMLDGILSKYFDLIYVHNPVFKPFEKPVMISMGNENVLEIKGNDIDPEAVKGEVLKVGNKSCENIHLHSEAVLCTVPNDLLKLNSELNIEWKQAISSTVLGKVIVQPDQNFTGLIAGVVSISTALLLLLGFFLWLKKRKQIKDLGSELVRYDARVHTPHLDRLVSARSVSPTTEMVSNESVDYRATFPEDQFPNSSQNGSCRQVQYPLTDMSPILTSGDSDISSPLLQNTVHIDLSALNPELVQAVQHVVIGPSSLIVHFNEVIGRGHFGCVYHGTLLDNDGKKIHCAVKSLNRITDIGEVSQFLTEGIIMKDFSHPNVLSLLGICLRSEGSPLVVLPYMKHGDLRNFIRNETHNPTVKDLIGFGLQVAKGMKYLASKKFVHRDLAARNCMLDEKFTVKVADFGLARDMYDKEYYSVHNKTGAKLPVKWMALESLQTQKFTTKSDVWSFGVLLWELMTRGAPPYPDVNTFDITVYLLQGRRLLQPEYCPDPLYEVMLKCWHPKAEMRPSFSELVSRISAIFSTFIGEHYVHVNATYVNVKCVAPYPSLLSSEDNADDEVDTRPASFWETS
- Method: Kinase inhibition experiment (HTRF KinEASE-TK kit), wild-type MET
- Assay type: biochemical
- Experimental setup: 10 concentrations, 3-fold dilution
Endpoint: IC50 (nM)

Here is how some compounds turned out for IC50.
>>> quantitative_result("C[C@H](CO)Nc1n[nH]c2nccc(Oc3ccc(NC(=O)c4ccc(F)c(-c5ccc(F)cc5)[n+]4[O-])cc3Cl)c12 [Final product 117]")
0.9
>>> quantitative_result("C[C@H](CO)Nc1n[nH]c2nccc(Oc3cc(F)c(NC(=O)c4ccc(Cl)c(-c5ccc(F)cc5)[n+]4[O-])cc3F)c12 [Final product 157]")
1.7
>>> quantitative_result("O=C(Nc1ccc(Oc2ccnc3[nH]nc(N4CCC(CO)CC4)c23)c(F)c1)c1cccc(-c2ccc(F)cc2)[n+]1[O-] [Final product 28]")
3
>>> quantitative_result("CC(O)C(CO)CNc1n[nH]c2nccc(Oc3ccc(NC(=O)c4cccc(-c5ccc(F)cc5)[n+]4[O-])cc3Cl)c12 (stereo not shown) [Final product 102]")
1
>>> quantitative_result("O=C(Nc1ccc(Oc2ccnc3[nH]nc(NCCO)c23)c(F)c1)c1cccc(-c2ccc(F)cc2)[n+]1[O-] [Final product 1]")
2.3
>>> quantitative_result("O=C(Nc1ccc(Oc2ccnc3[nH]nc(N[C@H]4COC[C@@H]4O)c23)c(Cl)c1)c1ccc(F)c(-c2ccc(F)cc2)[n+]1[O-] [Final product 120]")
1.3

[a] COc1ccc(C(=O)Nc2ccc(Oc3ccnc4[nH]nc(N[C@H](C)CO)c34)c(F)c2)[n+]([O-])c1-c1ccc(F)cc1 [Final product 85]
[b] COc1ccc(C(=O)Nc2ccc(Oc3ccnc4[nH]nc(N[C@H](C)CO)c34)c(Cl)c2)[n+]([O-])c1-c1ccc(F)cc1 [Final product 138]
In: Would you let me know which has the greater IC50 value, a or b ? Please respond with the label that marks your chosen entry.
Out: a
(a: 3.7 nM, b: 1.6 nM)

====

- Target desc: MET F1200I (Homo sapiens, UniProt P08581, F1200I)
- Construct: purchased Signalchem M52-12GG/Y767-2
- Sequence (P08581 25-1390 F1200I): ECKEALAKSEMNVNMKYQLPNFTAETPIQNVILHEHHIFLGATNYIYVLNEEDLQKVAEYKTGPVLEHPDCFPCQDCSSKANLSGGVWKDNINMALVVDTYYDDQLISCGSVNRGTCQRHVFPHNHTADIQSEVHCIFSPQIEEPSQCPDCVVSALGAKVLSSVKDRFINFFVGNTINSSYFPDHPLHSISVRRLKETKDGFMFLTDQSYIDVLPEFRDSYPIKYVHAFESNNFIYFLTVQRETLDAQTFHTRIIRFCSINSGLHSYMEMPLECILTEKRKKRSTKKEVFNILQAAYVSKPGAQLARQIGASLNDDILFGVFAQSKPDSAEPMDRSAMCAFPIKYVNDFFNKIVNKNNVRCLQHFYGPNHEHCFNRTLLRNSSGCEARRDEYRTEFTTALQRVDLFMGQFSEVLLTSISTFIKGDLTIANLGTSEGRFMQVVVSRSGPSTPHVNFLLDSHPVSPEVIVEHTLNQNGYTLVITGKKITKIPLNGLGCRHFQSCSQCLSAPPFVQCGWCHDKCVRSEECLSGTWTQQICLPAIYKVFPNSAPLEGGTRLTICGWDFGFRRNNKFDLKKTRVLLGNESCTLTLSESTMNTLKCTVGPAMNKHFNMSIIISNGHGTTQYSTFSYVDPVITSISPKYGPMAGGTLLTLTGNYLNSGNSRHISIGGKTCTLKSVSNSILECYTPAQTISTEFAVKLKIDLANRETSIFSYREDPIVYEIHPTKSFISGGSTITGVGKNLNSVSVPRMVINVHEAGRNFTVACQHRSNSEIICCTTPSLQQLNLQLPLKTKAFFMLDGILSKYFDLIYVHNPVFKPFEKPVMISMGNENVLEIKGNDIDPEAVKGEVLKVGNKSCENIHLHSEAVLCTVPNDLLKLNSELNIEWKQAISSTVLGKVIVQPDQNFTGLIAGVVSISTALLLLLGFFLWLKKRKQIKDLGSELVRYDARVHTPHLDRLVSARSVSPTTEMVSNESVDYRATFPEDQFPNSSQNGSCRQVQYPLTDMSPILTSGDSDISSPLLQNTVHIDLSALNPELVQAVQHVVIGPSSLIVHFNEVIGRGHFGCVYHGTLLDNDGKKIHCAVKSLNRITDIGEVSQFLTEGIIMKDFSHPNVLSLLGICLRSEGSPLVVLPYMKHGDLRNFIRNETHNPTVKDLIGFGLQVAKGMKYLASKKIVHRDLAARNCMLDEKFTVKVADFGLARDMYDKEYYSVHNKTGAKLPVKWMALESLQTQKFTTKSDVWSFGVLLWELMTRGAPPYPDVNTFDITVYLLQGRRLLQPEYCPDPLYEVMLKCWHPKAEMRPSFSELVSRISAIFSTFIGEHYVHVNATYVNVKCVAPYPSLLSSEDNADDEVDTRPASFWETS
- Method: Kinase inhibition experiment (HTRF KinEASE-TK kit), mutant MET F1200I
- Type: biochemical
- Experimental setup: 10 concentrations, 3-fold dilution
Endpoint: IC50 (nM)

[A] O=C(Nc1ccc(Oc2ccnc3[nH]nc(N4CCO[C@H](CO)C4)c23)c(F)c1)c1cccc(-c2ccc(F)cc2)[n+]1[O-]
[B] CC(O)C1CCN(c2n[nH]c3nccc(Oc4ccc(NC(=O)c5cccc(-c6ccc(F)cc6)[n+]5[O-])cc4F)c23)CC1 (stereo not drawn)
In: Would you let me know which has the greater IC50 value, A or B ? Please respond with the label that marks your chosen entry.
Out: A

[1] CCC(O)CNc1n[nH]c2nccc(Oc3ccc(NC(=O)c4cccc(-c5ccc(F)cc5)[n+]4[O-])cc3F)c12 (stereo not drawn)
[2] O=C(Nc1ccc(Oc2ccnc3[nH]nc(N4CCC(O)CC4)c23)c(F)c1)c1cccc(-c2ccc(F)cc2)[n+]1[O-]
In: Would you let me know which has the greater IC50 value, 1 or 2 ? Please respond with the label that marks your chosen entry.
Out: 1
(1: 20.8 nM, 2: 9.5 nM)

[1] CC(O)CNc1n[nH]c2nccc(Oc3ccc(NC(=O)c4cccc(-c5ccc(F)cc5)[n+]4[O-])cc3F)c12 (stereo not drawn)
[2] O=C(Nc1ccc(Oc2ccnc3[nH]nc(NCC(O)C(F)(F)F)c23)c(F)c1)c1cccc(-c2ccc(F)cc2)[n+]1[O-] (stereo not drawn)
In: Would you let me know which has the greater IC50 value, 1 or 2 ? Please respond with the label that marks your chosen entry.
Out: 2
